Test system: human hepatoma cells (HepG2)
Test: MTT tumor cell proliferation inhibition test, HepG2
Type: cell-based
Details: HepG2, 48 h, read-out: Half Inhibitory Concentration IC50 HepG2
readout kind: IC50
Please give the number followed by its unit.

Param item = `Cc1cc2c(C(C)C)c(O)c(O)c(C=O)c2c(O)c1-c1c(C)cc2c(C(C)C)c(O)c(O)c(C=O)c2c1O` ; retrieve measured IC50.
18.4 µM

----------
Tested on: human lung cancer cells (A-549)
Assay: MTT tumor cell proliferation inhibition test, A-549
Assay type: cell-based
Conditions: A549, 48 h, read-out: Half Inhibitory Concentration IC50 A549
readout kind: IC50 (µM)
Dear colleague, please return just the value in µM, with no unit written.

Param item = `Cc1cc2c(C(C)C)c(O)c(O)c(C=O)c2c(O)c1-c1c(C)cc2c(C(C)C)c(O)c(O)c(C=O)c2c1O` ; retrieve measured IC50.
26.3
